- Tested on: PDC KRAS tumor spheroids with HUVEC/MSC, viability
- measurement.description: Anticancer human tumor 349418-098-R-PDC patient-derived lung adenocarcinoma cell line growth inhibition [KRAS2]; active means viability on the fitted dose curve at most 10% of control; inactive means the rest
- condition.set: second compound 0.1 µM; first compound 0.0316 µM
Possible outcomes: yes for active, no for inactive

- compound: "CC1OCC2(CCN(c3cnc(Sc4ccnc(N)c4Cl)c(N)n3)CC2)C1N (stereo unspecified) + CNCc1ccccc1-c1csc(C(C)Nc2nc(C)nc3cc(OC)c(OC)cc23)c1"
  group.label: "no"
- compound: "CC(C)NCC(C(=O)N1CCN(c2ncnc3c2C(C)CC3O)CC1)c1ccc(Cl)cc1 (stereo unspecified) + COc1cc2nc(C)nc(NC(C)c3cc(N)cc(C(F)(F)F)c3)c2cc1OC1CCOC1"
  group.label: "no"
- compound: "Cn1ncnc1[C@H]1c2n[nH]c(=O)c3cc(F)cc(c23)N[C@@H]1c1ccc(F)cc1 + CC1OCC2(CCN(c3cnc(Sc4ccnc(N)c4Cl)c(N)n3)CC2)C1N"
  group.label: "no"
- compound: "O=C(c1cc(Cc2n[nH]c(=O)c3ccccc23)ccc1F)N1CCN(C(=O)C2CC2)CC1 + CNCc1ccccc1-c1csc(C(C)Nc2nc(C)nc3cc(OC)c(OC)cc23)c1"
  group.label: "no"
- compound: "CC(C)n1nc(-c2ccc3oc(N)nc3c2)c2c(N)ncnc21 + CNCc1ccccc1-c1csc(C(C)Nc2nc(C)nc3cc(OC)c(OC)cc23)c1"
  group.label: "yes"
- compound: "COc1cc(Nc2ncc3c(n2)-c2ccc(Cl)cc2C(c2c(F)cccc2OC)=NC3)ccc1C(=O)O + CNCc1ccccc1-c1csc(C(C)Nc2nc(C)nc3cc(OC)c(OC)cc23)c1"
  group.label: "no"

----------
- System: PDC KRAS tumor spheroids with HUVEC/MSC, viability
- measurement.description: Anticancer human tumor 349418-098-R-PDC cell line growth inhibition [KRAS2];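 further: spheroids exposed to compounds for seven days before readout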
- condition.set: second compound 1 µM; first compound 0.000316 µM; active compounds read low
# label = 1 if viability, T/C < 30% else -1

- compound: "Cn1ncnc1[C@H]1c2n[nH]c(=O)c3cc(F)cc(c23)N[C@@H]1c1ccc(F)cc1 + CNCc1ccccc1-c1csc(C(C)Nc2nc(C)nc3cc(OC)c(OC)cc23)c1"
  group.label: -1
- compound: "CN(C)C/C=C/C(=O)Nc1cc2c(Nc3ccc(F)c(Cl)c3)ncnc2cc1O[C@H]1CCOC1 + COc1cc2nc(C)nc(NC(C)c3cc(N)cc(C(F)(F)F)c3)c2cc1OC1CCOC1"
  group.label: -1
- compound: "CC(C)n1nc(-c2ccc3oc(N)nc3c2)c2c(N)ncnc21 + CC1OCC2(CCN(c3cnc(Sc4ccnc(N)c4Cl)c(N)n3)CC2)C1N"
  group.label: -1
- compound: "CC(=O)Nc1cccc(-n2c(=O)n(C3CC3)c(=O)c3c(Nc4ccc(I)cc4F)n(C)c(=O)c(C)c32)c1 + CNCc1ccccc1-c1csc(C(C)Nc2nc(C)nc3cc(OC)c(OC)cc23)c1"
  group.label: 1
- compound: "CC(=O)Nc1cccc(-n2c(=O)n(C3CC3)c(=O)c3c(Nc4ccc(I)cc4F)n(C)c(=O)c(C)c32)c1 + CC1OCC2(CCN(c3cnc(Sc4ccnc(N)c4Cl)c(N)n3)CC2)C1N"
  group.label: 1
- compound: "CC(=O)Nc1cccc(-n2c(=O)n(C3CC3)c(=O)c3c(Nc4ccc(I)cc4F)n(C)c(=O)c(C)c32)c1 + C=CC(=O)N1CCN(c2nc(OCC3CCCN3C)nc3c2CCN(c2cccc4cccc(C)c24)C3)CC1CC#N"
  group.label: 1
- compound: "CC(=O)Nc1cccc(-n2c(=O)n(C3CC3)c(=O)c3c(Nc4ccc(I)cc4F)n(C)c(=O)c(C)c32)c1 + C=CC(=O)N1CCN(c2nc(=O)n(-c3c(C)ccnc3C(C)C)c3nc(-c4c(O)cccc4F)c(F)cc23)C(C)C1"
  group.label: -1
- compound: "Cn1ncnc1[C@H]1c2n[nH]c(=O)c3cc(F)cc(c23)N[C@@H]1c1ccc(F)cc1 + C=CC(=O)N1CCN(c2nc(=O)n(-c3c(C)ccnc3C(C)C)c3nc(-c4c(O)cccc4F)c(F)cc23)C(C)C1"
  group.label: -1
- compound: "CN(C)C/C=C/C(=O)Nc1cc2c(Nc3ccc(F)c(Cl)c3)ncnc2cc1O[C@H]1CCOC1 + CNCc1ccccc1-c1csc(C(C)Nc2nc(C)nc3cc(OC)c(OC)cc23)c1"
  group.label: -1
- compound: "Cn1ncnc1[C@H]1c2n[nH]c(=O)c3cc(F)cc(c23)N[C@@H]1c1ccc(F)cc1 + COc1cc2nc(C)nc(NC(C)c3cc(N)cc(C(F)(F)F)c3)c2cc1OC1CCOC1"
  group.label: -1
- compound: "CC(C)n1nc(-c2ccc3oc(N)nc3c2)c2c(N)ncnc21 + C=CC(=O)N1CCN(c2nc(OCC3CCCN3C)nc3c2CCN(c2cccc4cccc(C)c24)C3)CC1CC#N"
  group.label: -1

----------
- Test system: PDC KRAS tumor spheroids with HUVEC/MSC, viability
- measurement.description: Anticancer human tumor 349418-098-R-PDC cell line growth inhibition [KRAS2]; active = viability on the fitted dose curve at most 10% of control; inactive = the rest;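 further: spheroids exposed to compounds for seven days before readout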
- condition.set: second compound 0.1 µM; first compound 0.0316 µM
Possible outcomes: 1 (yes) (active), 0 (no) (inactive)

- compound: "CC(C)NCC(C(=O)N1CCN(c2ncnc3c2C(C)CC3O)CC1)c1ccc(Cl)cc1 (stereo not drawn) + C=CC(=O)N1CCN(c2nc(OCC3CCCN3C)nc3c2CCN(c2cccc4cccc(C)c24)C3)CC1CC#N"
  group.label: "0 (no)"
- compound: "CC1COCCN1c1cc(-c2ccnn2C)c2ccnc(-c3ccn[nH]3)c2n1 (stereo not drawn) + C=CC(=O)N1CCN(c2nc(=O)n(-c3c(C)ccnc3C(C)C)c3nc(-c4c(O)cccc4F)c(F)cc23)C(C)C1"
  group.label: "0 (no)"
- compound: "CC1COCCN1c1cc(-c2ccnn2C)c2ccnc(-c3ccn[nH]3)c2n1 (stereo not drawn) + C=CC(=O)N1CCN(c2nc(OCC3CCCN3C)nc3c2CCN(c2cccc4cccc(C)c24)C3)CC1CC#N"
  group.label: "0 (no)"
- compound: "CC1COCCN1c1cc(-c2ccnn2C)c2ccnc(-c3ccn[nH]3)c2n1 (stereo not drawn) + CNCc1ccccc1-c1csc(C(C)Nc2nc(C)nc3cc(OC)c(OC)cc23)c1"
  group.label: "0 (no)"
- compound: "CC1(C)CCC(CN2CCN(c3ccc(C(=O)NS(=O)(=O)c4ccc(NCC5CCOCC5)c([N+](=O)[O-])c4)c(Oc4cnc5[nH]ccc5c4)c3)CC2)=C(c2ccc(Cl)cc2)C1 + C=CC(=O)N1CCN(c2nc(OCC3CCCN3C)nc3c2CCN(c2cccc4cccc(C)c24)C3)CC1CC#N"
  group.label: "0 (no)"
- compound: "CC(=O)OC12COC1CC(O)C1(C)C(=O)C(O)C3=C(C)C(OC(=O)C(O)C(NC(=O)OC(C)(C)C)c4ccccc4)CC(O)(C(OC(=O)c4ccccc4)C21)C3(C)C (stereo not drawn) + C=CC(=O)N1CCN(c2nc(OCC3CCCN3C)nc3c2CCN(c2cccc4cccc(C)c24)C3)CC1CC#N"
  group.label: "0 (no)"
- compound: "CC1OCC2(CCN(c3cnc(Sc4ccnc(N)c4Cl)c(N)n3)CC2)C1N (stereo not drawn) + COc1cc2nc(C)nc(NC(C)c3cc(N)cc(C(F)(F)F)c3)c2cc1OC1CCOC1"
  group.label: "0 (no)"
- compound: "CC(C)n1nc(-c2ccc3oc(N)nc3c2)c2c(N)ncnc21 + CC1OCC2(CCN(c3cnc(Sc4ccnc(N)c4Cl)c(N)n3)CC2)C1N"
  group.label: "1 (yes)"

----------
- System: PDC KRAS tumor spheroids with HUVEC/MSC, viability
- measurement.description: Anticancer human tumor 349418-098-R-PDC cell line growth inhibition [KRAS2];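 further: spheroids exposed to compounds for seven days before readout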
- condition.set: second compound 0.316 µM; first compound 1 µM; active compounds read low
# label = t if viability, T/C < 10% else f

- compound: "CC1COCCN1c1cc(-c2ccnn2C)c2ccnc(-c3ccn[nH]3)c2n1 (stereo unspecified) + C=CC(=O)N1CCN(c2nc(=O)n(-c3c(C)ccnc3C(C)C)c3nc(-c4c(O)cccc4F)c(F)cc23)C(C)C1"
  study.target: "PDC KRAS tumor spheroids with HUVEC/MSC, viability"
  group.label: "t"
- compound: "CC1COCCN1c1cc(-c2ccnn2C)c2ccnc(-c3ccn[nH]3)c2n1 (stereo unspecified) + CNCc1ccccc1-c1csc(C(C)Nc2nc(C)nc3cc(OC)c(OC)cc23)c1"
  study.target: "PDC KRAS tumor spheroids with HUVEC/MSC, viability"
  group.label: "t"
- compound: "Cn1nccc1Nc1nccc(-c2cc3c(s2)C(C)(C)N(CCN2CCOCC2)C3=O)n1 + CNCc1ccccc1-c1csc(C(C)Nc2nc(C)nc3cc(OC)c(OC)cc23)c1"
  study.target: "PDC KRAS tumor spheroids with HUVEC/MSC, viability"
  group.label: "t"
- compound: "CC1OCC2(CCN(c3cnc(Sc4ccnc(N)c4Cl)c(N)n3)CC2)C1N (stereo unspecified) + COc1cc2nc(C)nc(NC(C)c3cc(N)cc(C(F)(F)F)c3)c2cc1OC1CCOC1"
  study.target: "PDC KRAS tumor spheroids with HUVEC/MSC, viability"
  group.label: "f"
- compound: "CC(C)NCC(C(=O)N1CCN(c2ncnc3c2C(C)CC3O)CC1)c1ccc(Cl)cc1 (stereo unspecified) + C=CC(=O)N1CCN(c2nc(OCC3CCCN3C)nc3c2CCN(c2cccc4cccc(C)c24)C3)CC1CC#N"
  study.target: "PDC KRAS tumor spheroids with HUVEC/MSC, viability"
  group.label: "f"
